target: T1, PD-1-HIS (human, UniProt Q15116); assay: ELISA, supernatant of transfected HEK293 cells on PD-1-HIS(tag), OD 450 nm, average of two experiments
T1 construct: soluble extracellular domain; May be the same protein as m2; also called PD-1-HIS(tag); PD-1-His Tag (Sino Biological #10377-H08H-50)
T1 sequence (Q15116 25-167 limits assumed): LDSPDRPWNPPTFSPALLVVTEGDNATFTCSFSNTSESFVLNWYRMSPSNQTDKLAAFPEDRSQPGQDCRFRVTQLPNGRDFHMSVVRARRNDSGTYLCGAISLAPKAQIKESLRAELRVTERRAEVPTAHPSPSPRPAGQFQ

Binder	binding result
100394_G1VH1_100395_G1VK4 (antibody, V domains shown, Mouse variable regions; cloned into pFUSE-CHIg-mG1 (murine IgG1 Fc), expressed in HEK293) VH: EVQLQESGPELVKPGASVKIPCKASGYTFTDYNMDWVKQNHGKSLEWIGDIDPNNGDTIYNQKFKGKATLTVDKSSRTAYMELRSLTSEDTAVYYCARWRSSMDYWGQGTSVTVSS VL: DIVMTQSPSSLSASLGDRVTISCSASQGISNYLNWYQQRPDGTVKLLIYYTSSLHSGVPSRFSGSGSGTDYSLTISNLEPEDIATYYCQQYSNLPWTFGGGTKLEIK	binds
